B1: ZNF649 (parent)
chain: YHTGKTPFVCPECGQPCSQKSGLI

Variants of: B1
Test: protein stability index of a GFP-peptide fusion (GPS, HEK-293T) (PSI 1-6); higher = more stable;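 further: lentivirally expressed fusions sorted by FACS into six bins by GFP to DsRed ratio, PSI derived from sequencing read proportions per bin multiplied by bin number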
Conditions: c terminus: a fixed tail appended
# protein stability index annotations
No unit in the answer, please; the number alone is enough.

The cases that follow already have their protein stability index on record.
{"columns": ["Variant", "protein stability index"],
 "data": [
  ["Q19P", 2.04],
  ["P7R", 1.03],
  ["I24S", 1.45],
  ["Q15H", 2.23],
  ["H2R", 2.1]
]}

Quick check: protein stability index of "S18V" ?
1.44

Please give the result for "C10H" too.
1

Next entry: "Q15E"
2.65

How about this variant: "P11I"
1.69

Numbers sourced from the supplement of paper PMC10567573.
